# Study Target: human SSTR2 (Homo sapiens (Human), UniProt P30874)
# Sequence (P30874 whole entry): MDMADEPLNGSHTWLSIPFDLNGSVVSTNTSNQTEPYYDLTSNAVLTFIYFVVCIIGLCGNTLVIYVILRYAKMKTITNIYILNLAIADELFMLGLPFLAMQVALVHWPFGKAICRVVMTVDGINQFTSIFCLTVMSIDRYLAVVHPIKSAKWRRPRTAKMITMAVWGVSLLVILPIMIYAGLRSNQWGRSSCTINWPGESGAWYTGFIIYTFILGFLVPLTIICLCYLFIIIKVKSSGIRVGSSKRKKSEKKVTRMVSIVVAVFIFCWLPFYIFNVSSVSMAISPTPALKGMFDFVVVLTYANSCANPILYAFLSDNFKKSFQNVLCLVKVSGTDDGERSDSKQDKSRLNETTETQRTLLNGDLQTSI
# Assay Notes: Human SSTR2 intracellular cAMP functional assay for agonists (HTRF)
# Type: cell-based
# Run Conditions: CHO-K1 cells stably expressing human SSTR2; NKH477-stimulated cAMP; read-out: EC50 (inhibition of cAMP activities via human SST2R)
pEC50: −log10 of the molar value.
// reported pEC50 for each item listed

INSERT INTO assay_data (compound, value_measured) VALUES
  ('NC(=O)c1cc(F)cc(-c2ccc3nnc(-c4cc(F)cc(F)c4)c(N4CCC(N)CC4)c3c2)c1', '> 8.00'),
  ('Oc1cccnc1-c1ccc2ncc(-c3cc(F)cc(F)c3)c(N3CC[C@H]4NCCO[C@@H]4C3)c2c1 (relative stereo)', '> 8.00'),
  ('Nc1cccnc1-c1ccc2ncc(-c3cc(F)cc(F)c3)c(N3CC[C@H]4NCCO[C@@H]4C3)c2c1 (relative stereo)', '7.00 to 8.00'),
  ('Cc1cc(F)cc(-c2cnc3ccc(-c4cc(F)cc(C(N)=O)c4)nc3c2N2CCC(N)CC2)c1', '> 8.00'),
  ('CONC(=O)Nc1ccc(C#N)cc1-c1ccc2ncc(-c3cc(C)cc(F)c3)c(N3CCC(N)CC3)c2c1', '> 8.00'),
  ('CONC(=O)Nc1c(F)cc(F)cc1-c1ccc2ncc(-c3cc(F)cc(F)c3)c(N3CCC(N)CC3)c2c1', '> 8.00');

Let us examine a further case.
Q: Any idea what pEC50 was measured for Nc1c(-c2ccc3ncc(-c4cc(F)cc(F)c4)c(N4CC[C@H]5NCCO[C@@H]5C4)c3c2)cncc1C1CC1 (relative stereo) ?
Result: 7.00 to 8.00

====

// reported pEC50 for each item listed
# Study Target: human SSTR2 (Homo sapiens (Human), UniProt P30874)
# Assay Notes: Human SSTR2 intracellular cAMP functional assay for agonists (HTRF)
# Type: cell-based
pEC50: −log10 of the molar value.

Q: Any idea what pEC50 was measured for "N#Cc1cccc(-c2ccc3ncc(-c4cc(F)cc(CN5CC(F)(F)C5)c4)c(N4CCC(N)CC4)c3c2)c1O" ?
Result: 6.00 to 7.00

====

# Study Target: human SSTR2 (Homo sapiens (Human))
# Assay Notes: Human SSTR2 intracellular cAMP functional assay for agonists (HTRF)
# Type: cell-based
pEC50: −log10 of the molar value.
Reported Property: pEC50

For orientation, consider the following solved cases.
INSERT INTO assay_data (given_smiles, reported_property, value_measured) VALUES
  ('N#Cc1cccc(-c2ccc3ncc(-c4cc(F)cc(F)c4)c(N4CCC(N)CC4)c3c2)c1OCC(=O)O', 'pEC50', '7.00 to 8.00'),
  ('CCNCC1CN(c2c(-c3cc(C)cc(F)c3)cnc3ccc(-c4cc(F)cc(C#N)c4O)cc23)C1', 'pEC50', '> 8.00'),
  ('N#Cc1cccc(-c2cnc3ncc(-c4cc(F)cc(F)c4)c(N4CCC(N)CC4)c3c2)c1O', 'pEC50', '7.00 to 8.00');

Let us examine a further case.
Q: Any idea what pEC50 was measured for "N#Cc1cccc(-c2ccc3ncc(-c4cc(F)cc(OC5COC5)c4)c(N4CCC(N)CC4)c3c2)c1O" ?
Result: 7.00 to 8.00

====

// reported EC50 for each item listed
# Study Target: human SSTR2 (Homo sapiens (Human), UniProt P30874)
# Assay Notes: Human SSTR2 intracellular cAMP functional assay for agonists (HTRF)
# Format: cell-based
# Protocol: Functional Assay for SSTR2 Agonists General overview: All five SSTR subtypes are Gi coupled G-protein coupled receptors (GPCRs) that lead to decreases in intracellular cyclic AMP (cAMP) when activated by an agonist. […] Human SSTR2 intracellular cAMP assay is described below. The human SSTR1, 3, 4 and 5 assays follow the same protocol of SSTR2. The cells are cultured at 37° C., 5% CO2 and 95% humidity. […] The time-resolved fluorescent signal is read with a Tecan M1000Pro multiplate reader. […]

For orientation, consider the following solved cases.
INSERT INTO measurements (compound, value_measured) VALUES
  ('CCN(CCO)CC1CN(c2c(-c3cc(C)cc(F)c3)cnc3ccc(-c4cc(F)cc(C#N)c4O)cc23)C1 [2-44]', '100 to 1000 nM'),
  ('Cc1cc(F)cc(-c2cnc3ccc(-c4cc(F)cc(C#N)c4O)cc3c2N2CC(CN3CCOCC3)C2)c1 [2-35]', '100 to 1000 nM'),
  ('N#Cc1cc(Cl)c(F)c(-c2ccc3ncc(-c4cc(F)cc(F)c4)c(N4CCC(N)CC4)c3c2)c1O [2-147]', '10 to 100 nM'),
  ('NC1CCN(c2c(-c3cc(F)cc(F)c3)cnc3ccc(-c4cc(Cl)c5[nH]c(=O)[nH]c5c4)cc23)CC1 [2-141]', '10 to 100 nM');

Q: // fetch human SSTR2 (Homo sapiens (Human), UniProt P30874) EC50 for Cc1cc(Cl)cc(-c2cnc3ccc(-c4cc(F)cc(C#N)c4O)cc3c2N2CC(CN)C2)c1 [2-22]
Result: 10 to 100 nM

Q: Could you do the same for COc1cc(F)cc(-c2cnc3ccc(-c4cccc(F)c4NC(=O)N4CCC4)cc3c2N2CCC(N)CC2)c1 [2-175] , please?
Result: 10 to 100 nM

Q: Could you do the same for N#Cc1cccc(-c2ccc3ncc(-c4cc(F)cc(F)c4)c(N4CCC(N)CC4)c3c2)c1OCCCC(=O)O [2-57] , please?
Result: 10 to 100 nM

Q: Could you do the same for CON=Cc1cc(-c2ccc3ncc(-c4cc(C)cc(F)c4)c(N4CCC(N)CC4)c3c2)ccc1O [2-213] , please?
Result: 10 to 100 nM

Q: Could you do the same for Cc1cc(F)cc(-c2cnc3ccc(-c4cccc(C#N)c4O)cc3c2N2CC(CN)C2)c1 [2-12] , please?
Result: 10 to 100 nM

Q: Could you do the same for NC(=O)c1cnc(N2CCC2)c(-c2ccc3ncc(-c4cc(F)cc(F)c4)c(N4CCC(N)CC4)c3c2)c1 [2-76] , please?
Result: 100 to 1000 nM

Q: Could you do the same for Cc1cc(F)cc(-c2ccc3nnc(-c4cc(F)cc(C(N)=O)c4)c(N4CCC(N)CC4)c3c2)c1 [1-15] , please?
Result: 10 to 100 nM

Q: Could you do the same for CON=Cc1c(F)cccc1-c1ccc2ncc(-c3cc(F)cc(F)c3)c(N3CCC(N)CC3)c2c1 [2-129] , please?
Result: 10 to 100 nM

Q: Could you do the same for CONC(=O)Nc1nccc(C)c1-c1ccc2ncc(-c3cc(C)cc(F)c3)c(N3CCC(N)CC3)c2c1 [2-215] , please?
Result: 10 to 100 nM

Q: Could you do the same for Cc1cc(F)cc(-c2cnc3ccc(-c4cc(F)cc(C#N)c4O)cc3c2N2CC(CNCC(C)O)C2)c1 (stereo not shown) [2-51] , please?
Result: 10 to 100 nM

Q: Could you do the same for Cc1cc(F)cc(-c2cnc3ccc(-c4cccc(C(=O)N5CCC5)c4O)cc3c2N2CCC(N)CC2)c1 [2-88] , please?
Result: 10 to 100 nM

Q: Could you do the same for CCON=Cc1cc(F)cc(-c2cnc3ccc(-c4cccc(C#N)c4O)cc3c2N2CCC(N)CC2)c1 [2-79] , please?
Result: 100 to 1000 nM

====

# Study Target: human SSTR2 (Homo sapiens (Human), UniProt P30874)
# Assay Notes: Human SSTR2 intracellular cAMP functional assay for agonists (HTRF)
# Format: cell-based
# Run Conditions: CHO-K1 cells stably expressing human SSTR2; NKH477-stimulated cAMP; read-out: EC50 (inhibition of cAMP activities via human SST2R)
pEC50: −log10 of the molar value.
// reported pEC50 for each item listed

For orientation, consider the following solved cases.
INSERT INTO measurements (compound, study_target, value_measured) VALUES
  ('N#Cc1cccc(-c2ccc3ncc(-c4cc(F)cc(F)c4)c(N4CC[C@H](N)[C@H](C#N)C4)c3c2)c1O (relative stereo) [2-94]', 'human SSTR2 (Homo sapiens (Human), UniProt P30874)', '7.00 to 8.00'),
  ('COCCOc1c(C#N)cccc1-c1ccc2ncc(-c3cc(F)cc(F)c3)c(N3CCC(N)CC3)c2c1 [2-72]', 'human SSTR2 (Homo sapiens (Human), UniProt P30874)', '> 8.00'),
  ('Cc1cc(Cl)cc(-c2nnc3cc(Cl)c(-c4cc(F)cc(C#N)c4O)cc3c2N2CCC(N)CC2)c1 [1-12]', 'human SSTR2 (Homo sapiens (Human), UniProt P30874)', '> 8.00'),
  ('N#Cc1cccc(-c2ccc3ncc(-c4cc(F)cc(F)c4)c(N4CC[C@H]5NCCO[C@@H]5C4)c3c2)c1O (relative stereo) [2-19]', 'human SSTR2 (Homo sapiens (Human), UniProt P30874)', '> 8.00'),
  ('CCCNCC1CN(c2c(-c3cc(C)cc(F)c3)cnc3ccc(-c4cccc(C#N)c4O)cc23)C1 [2-42]', 'human SSTR2 (Homo sapiens (Human), UniProt P30874)', '> 8.00');

Q: Any idea what pEC50 was measured for CONC(=O)Nc1c(F)cccc1-c1ccc2ncc(-c3cc(F)cc(OC)c3)c(N3CCC(N)CC3)c2c1 [2-174] ?
Result: > 8.00

Q: Could you do the same for NC(=O)c1cc(F)cc(-c2ccc3nnc(-c4cc(Cl)cc(Cl)c4)c(N4CCC(NCCF)CC4)c3c2)c1 [1-33] , please?
Result: > 8.00

Source: patent US10351547B2
